Assay: Cmax in Sprague-Dawley rat at 10 mg/kg, iv measured for 5 mins by HPLC-MS/MS analysis
Type: ADME, organism-based
Parameters: time 5 min, dose 10 mg/kg, route iv
Conditions: in vivo
MEASURED ATTRIBUTE: Cmax

{"columns": ["CHEMICAL STRING", "EXPERIMENTAL VALUE"],
 "data": [
  ["C[C@@H]1CC[C@H]2[C@H](C(=O)c3c(O)c([C@@]4(O)CC[C@@H](O)[C@H]5O[C@H]54)cn(O)c3=O)[C@H](C)C=C[C@@H]2C1", "13200 ng/mL"]
]}

* * *

Experiment: Plasma clearance in Sprague-Dawley rat at 10 mg/kg, iv measured for 24 hrs by HPLC-MS/MS analysis
Format: ADME, organism-based
MEASURED ATTRIBUTE: clearance (mL/min/kg)

{"columns": ["CHEMICAL STRING", "EXPERIMENTAL VALUE"],
 "data": [
  ["C[C@@H]1CC[C@H]2[C@H](C(=O)c3c(O)c([C@@]4(O)CC[C@@H](O)[C@H]5O[C@H]54)cn(O)c3=O)[C@H](C)C=C[C@@H]2C1", 4]
]}
